# procedure-summary: Quantitative High-Throughput drug screen in 47 multiple myeloma cell lines against the NCATS MIPE library collection: KHM11_PLB cell viability assay (AID 1918962); also: nearly all actives have a fitted effect of over 35% in size; also: potency is read from the fitted curve at half-maximal effect
# recorded-conditions: KHM11 myeloma cell viability, CellTiter-Glo ATP luminescence, 48 h; series mostly up to 45.8 µM
# Text: PI: Beverly A. Mock Ph.D. Laboratory of Cancer Biology and Genetics, Center for Cancer Research, National Cancer Institute, National Institute of Health, Bethesda, Maryland […] 5; Detector; 425V; Luminescence; Viewlux PerkinElmer. […] 1. […] Briefly, the corresponding myeloma cell lines were screened in 1,536-well plates with 500 cells, 5-uL per well for inhibition of cell viability (assessed by measuring ATP levels with CellTiterGlo). […]
Records with an inconclusive call do not appear. Calls of active or inactive are those of the source. Calls follow the shape of the dose curve; as a rule, active = well fitted cell-killing curve with a large enough effect; inconclusive = small, poorly fitted or top-dose-only effect, or effect the other way; inactive = no such curve, though single readings can be large or run the other way.

[
  {
    "compound": "CC(C)(C)OC(=O)Nc1ccc(-c2cc(C(=O)NCCCCCCC(=O)NO)no2)cc1",
    "Potency": "5.9 µM (active)"
  },
  {
    "compound": "NC(=O)c1c(OCc2c(F)cc(Br)cc2F)nsc1NC(=O)NCCCCN1CCCC1",
    "Potency": "9.35 µM (active)"
  },
  {
    "compound": "Nc1nc(NCCNc2ncc(-n3ccnc3)c(-c3ccc(Cl)cc3Cl)n2)ccc1[N+](=O)[O-]",
    "Potency": "5.26 µM (active)"
  },
  {
    "compound": "COC(=O)Nc1nc2ccc(C(=O)c3ccc(F)cc3)cc2[nH]1",
    "Potency": "0.264 µM (active)"
  },
  {
    "compound": "O=C(O)c1ccc2c(c1)nc(Nc1cccc(Cl)c1)c1ccncc12",
    "Potency": "5.9 µM (active)"
  },
  {
    "compound": "CC(C)=CCCC(C)=CCCC(C)=CCSc1ccccc1C(=O)O",
    "Potency": "1.18 µM (active)"
  },
  {
    "compound": "C[C@@]12O[C@@H](C[C@]1(O)CO)n1c3ccccc3c3c4c(c5c6ccccc6n2c5c31)CNC4=O",
    "Potency": "0.0662 µM (active)"
  },
  {
    "compound": "CC1(C)O[C@@H]2C[C@@H]3[C@H]4C[C@@H](F)C5=CC(=O)C=C[C@]5(C)[C@@]4(F)[C@@H](O)C[C@]3(C)[C@]2(C(=O)CO)O1",
    "Potency": "inactive"
  },
  {
    "compound": "CC(C)c1ccccc1Cc1cc(C(=O)Nc2ccc(S(=O)(=O)c3ccccc3C(C)(C)C)cc2)c(O)c(O)c1O",
    "Potency": "7.43 µM (active)"
  },
  {
    "compound": "Cc1ccc(C(=O)Nc2ccc(CN3CCN(C)CC3)c(C(F)(F)F)c2)cc1C#Cc1cnc2cccnn12",
    "Potency": "0.662 µM (active)"
  },
  {
    "compound": "NC1(Cc2ccc(Cl)cc2)CCN(c2ncnc3[nH]ccc23)CC1",
    "Potency": "2.96 µM (active)"
  },
  {
    "compound": "NCC(=O)Nc1ccc(-n2nc(C(F)(F)F)cc2-c2ccc3c(ccc4ccccc43)c2)cc1",
    "Potency": "26.4 µM (active)"
  },
  {
    "compound": "C=CC(=O)Nc1cccc(Oc2nc(Nc3ccc(N4CCN(C)CC4)cc3)ncc2Cl)c1",
    "Potency": "16.6 µM (active)"
  },
  {
    "compound": "CCCn1c(=O)c2[nH]c(-c3cnn(Cc4cccc(C(F)(F)F)c4)c3)nc2n(CC)c1=O",
    "Potency": "inactive"
  },
  {
    "compound": "c1cc(-c2cnn3cc(-c4ccc(OCCN5CCCCC5)cc4)cnc23)ccn1",
    "Potency": "1.48 µM (active)"
  },
  {
    "compound": "Nc1cccc(-c2cc3c(Oc4cccc(O)c4)ncnc3[nH]2)c1",
    "Potency": "16.6 µM (active)"
  },
  {
    "compound": "Cc1cn2c(-c3cn[nH]c3)cnc2c(Nc2ccc(C(=O)N3CCNCC3)cc2F)n1",
    "Potency": "16.6 µM (active)"
  },
  {
    "compound": "Cc1coc2c1C(=O)C(=O)c1c-2ccc2c1CCCC2(C)C",
    "Potency": "7.43 µM (active)"
  },
  {
    "compound": "CC(O)C1C(=O)N2C(C(=O)O)=C(SC3CNC(C(=O)N(C)C)C3)C(C)C12 (centres undefined)",
    "Potency": "inactive"
  }
]

Value source: PubChem BioAssay (NCATS)
